Measured composite z-score, listed per entry.
- System: Inhibin beta A chain (activin A)
- PROTOCOL: small molecules binding activin A – biochemical, small-molecule microarray, 635 nm fluorescence scan, primary screen (AID 1107);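 further: mouse activin A protein probed at 4.33 µg/mL on printed slides; score merges bound-protein fluorescence near 667 nm with spot signal-to-noise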
- ASSAY CONTEXT: INHBA, higher = more signal
Just the number.

| COMPOUND | ASSAY SYSTEM | composite z-score |
| --- | --- | --- |
| COCCOC(=O)N1C(=O)[C@@]2(c3cc(C#CCNC(N)=O)ccc31)[C@H](C(N)=O)[C@H]1C(=O)O[C@H](c3ccccc3)[C@H](c3ccccc3)N1[C@@H]2c1ccccc1OCCO | Inhibin beta A chain (activin A) | 1.11 |
| Cc1ccc(S[C@]2(C(=O)NC(C)C)CC(=O)N(Cc3cc(C(F)(F)F)cc(C(F)(F)F)c3)[C@@H]2c2ccc(CO)cc2)cc1 | Inhibin beta A chain (activin A) | -0.403 |

What value of composite z-score has been reported for the following compound? C=CCC(OC(C)=O)[C@@H]1[C@@H](N(Cc2cccc3ccccc23)C(=O)Cc2ccc(F)cc2)c2cc(OCCCO)ccc2N1C(=O)c1ccc2ccccc2c1 (stereo partly drawn) 1.24

* * *

- PROTOCOL: plasmodial surface anion channel blockers, osmotic lysis – cell-based, P. falciparum Indochina, OD700, 2 h, primary screen (AID 1155);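 further: lysis reports solute entry through the parasite surface anion channel PSAC; channel blockers reduce lysis of infected cells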
- ASSAY CONTEXT: P. falciparum Indochina infected erythrocytes, called active from +8 up or from −8 down
Activity calls are given as the source filed them.
Respond only with the outcome that fits, drawn from 1 (active), -1 (inactive)

| COMPOUND | CAT |
| --- | --- |
| CCCC[C@@H](O)C1=C(COc2ccccc2)C[C@H]2C(=O)N(Cc3ccccc3)C(=O)[C@H]2[C@H]1CO | -1 |
| COC(=O)[C@@]1(Cc2ccc(OC)cc2)[C@H]2c3cc(C(=O)N(C)C)n(Cc4ccc(C)o4)c3C[C@H]2CN1C(=O)c1ccccc1 | -1 |
| CN(C)c1ccc(C(O)C2C=CC3C(=O)NC(=O)C3N2Nc2ccccn2)cc1 (centres undefined) | -1 |
| CCCC[C@@H](O)C1=C(COC)C[C@H]2C(=O)N(C)C(=O)[C@H]2[C@H]1CO | -1 |
| [N-]=[N+]=NCc1ccccc1[C@@H]1OC(c2ccc(OCCCO)cc2)=N[C@]1(CCS(=O)(=O)c1ccccc1)C(=O)O | -1 |
| [N-]=[N+]=Nc1ccccc1C[C@@]1(C(N)=O)N=C(c2ccc(OCCCO)cc2)O[C@@H]1c1ccccc1N=[N+]=[N-] | 1 |
| COC(=O)[C@@]1(Cc2ccc(OC)cc2)[C@H]2c3cc(C(=O)N(C)C)n(Cc4ccc(OC(F)(F)F)cc4)c3C[C@H]2CN1C(=O)c1ccccc1 | -1 |
| CCOC(=O)C[C@H]1[C@H](OC(=O)Cc2ccc3c(c2)OCO3)[C@@H](NC(=O)C2CCCCC2)c2cc(OCCCO)ccc2N1C(=O)c1ccccc1 | -1 |

Moving on to the next compound.
# lookup: test call for CN1C(=O)C2C=CC(C(O)c3cccn3C)N(Nc3ccc([N+](=O)[O-])cc3[N+](=O)[O-])C2C1=O (centres undefined) -1

* * *

- PROTOCOL: compound effects on hepatocellular carcinoma cell viability – HepG2, calcein-AM fluorescence, 48 h, basal, profiling panel (AID 1164); further: test concentration not given here
- ASSAY CONTEXT: higher = more signal
PARAMETER MEASURED: z-score

| COMPOUND | PARAMETER MEASURED | VALUE OBSERVED |
| --- | --- | --- |
| CCC#CCN(Cc1ccccc1Br)[C@H](/C=C/C1CC1)[C@@H](O)Cc1ccccc1 | z-score | -0.713 |
| CCCCCC1=C2CNC(C)(C(=O)OC)C=C2C(C)C1=O (configuration not stated) | z-score | -1.29 |
| CCCC[C@@H](O)C1=C(COc2ccccc2)C[C@H]2C(=O)N(Cc3ccccc3)C(=O)[C@H]2[C@H]1CO | z-score | 0.913 |
| CCCC#C[Si](O[C@H](CC)c1cn([C@H](C)c2ccccc2)nn1)(C(C)C)C(C)C | z-score | 0.9 |
| COc1ccc([Si](C)(C)[C@H]2[C@H](CC(=O)N(CCO)Cc3ccccc3)O[C@@]3(C(=O)N(C)c4c(Br)cc(C)cc43)[C@@H]2C)cc1 | z-score | -4.11 |

What value of z-score has been reported for the following compound? "NC(=O)[C@@]1(Cc2ccccc2)COC(c2ccc(OCCCO)cc2)=N1" 0.532

Same lookup for "NCCCCCNC(=O)[C@@H]1C[C@@H]2C(=O)N[C@@H](CCCCN)C(=O)N2[C@@H]1c1ccc(O)cc1" , please. 0.131

* * *

- ASSAY SYSTEM: Follistatin-related protein 3 (Homo sapiens)
- PROTOCOL: compounds binding follistatin-related protein 3 – biochemical, small-molecule microarray, 635 nm fluorescence, primary screen (AID 1105);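 further: score merges emission near 667 nm and signal to noise per printed spot across three slides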
- ASSAY CONTEXT: FSTL3 binding, higher = more signal
// label = Fulfilled if composite z-score is not less than 1, otherwise Not fulfilled

For this compound, is measured composite z-score 1 or higher? "CCCCNC(=O)c1ccc(C#CC(C)(C)C)c(OC(C)=O)c1" Fulfilled

Same lookup for "C=CCOC(=O)[C@@H]1[C@H]2C(=O)O[C@H](c3ccccc3)[C@H](c3ccccc3)N2[C@H](c2ccc(OCCOC(=O)[C@@H]3C[C@@H]4C(=O)N[C@@H](CCCC[N+](C)(C)C)C(=O)N4[C@@H]3c3ccc(O)cc3)cc2)[C@@]12C(=O)Nc1ccc(I)cc12" , please. Fulfilled

Same lookup for "CCOC(=O)C[C@H]1[C@H](OC(=O)c2ccc(C(=O)c3ccccc3)cc2)[C@@H](NC(=O)C2CCCCC2)c2cc(OCCCO)ccc2N1C(=O)c1ccc2ccccc2n1" , please. Fulfilled

Same lookup for "CC(C)[Si](C#CCCCC#N)(O[C@H](c1ccccc1)c1cn(Cc2ccccc2)nn1)C(C)C" , please. Fulfilled

Same lookup for CCN(CC)c1ccc(N2CC=CC34O[C@@H]5/C=C\CCCOC(=O)C5[C@H]3C(=O)N(C(C)CO)[C@@H]4C2=O)cc1 (stereo partly drawn) , please. Not fulfilled

Same lookup for [N-]=[N+]=Nc1ccccc1C[C@]1(C(=O)NCC(O)CO)COC(c2ccc(OCCCO)cc2)=N1 (stereo partly drawn) , please. Not fulfilled

* * *

- PROTOCOL: probe aLefty2 binding to arrayed compounds – biochemical, biotinylated probe, 635/667 nm fluorescence, primary screen (AID 1094);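 further: score merges spot fluorescence near 667 nm with spot signal-to-noise ratio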
- ASSAY CONTEXT: small-molecule microarray, higher = more signal
Measured composite z-score, listed per entry.

Completed entries (count: 3):
| MOLECULE | composite z-score |
| --- | --- |
| CCOC(=O)C[C@H]1[C@H](OC(=O)Cc2ccc3c(c2)OCO3)[C@@H](NC(=O)c2ccc3ccccc3n2)c2cc(OCCCO)ccc2N1C(=O)c1ccccc1 | 0.0209 |
| CCC1=C2CN(Cc3ccccc3)[C@@H](C(=O)Cc3ccccc3)C2C=CCC1 (some centres undefined) | -0.164 |
| CC(C)N1C(=O)C[C@@](C(=O)NC2CC2)(c2ccc([N+](=O)[O-])cc2)[C@H]1c1ccc(CO)cc1 | 0.0702 |

What value of composite z-score has been reported for the following molecule? "NC(=O)[C@H]1[C@@H]2C(=O)O[C@@H](c3ccccc3)[C@@H](c3ccccc3)N2[C@@H](c2ccc(OCCO)cc2)[C@]12C(=O)Nc1ccc(C#CCCO)cc12" -0.0636

* * *

- PROTOCOL: S6 kinase pathway phospho-S6 level changes – cell-based, A549, cytoblot, luminescence, serum-stimulated, primary screen (AID 1158);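 further: serum-stimulated A549 lung adenocarcinoma cells; signal is phosphorylated S6 detected by cytoblot immunostaining with HRP secondary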
- ASSAY CONTEXT: 5 h, higher = more signal
Entries are grouped by z-score into these classes: low interval: < -0.2; middle interval: ≥ -0.2 and < 0.2; high interval: ≥ 0.2

| COMPOUND | CAT |
| --- | --- |
| O=C1O[C@@H](c2ccccc2)[C@@H](c2ccccc2)N2[C@@H](c3ccc(OCCO)cc3)[C@]3(C(=O)Nc4ccc(C#CC5=CCCCC5)cc43)[C@@H](C(=O)NC[C@H](O)c3ccccc3)[C@H]12 | middle interval |

Looking at "CC(C)NC(=O)[C@@]1(c2ccc([N+](=O)[O-])cc2)CC(=O)N(C2CCCCC2)[C@@H]1c1ccc(CO)cc1" , which class would you pick? low interval

Same lookup for O=C1CS(=O)(=O)C(c2cccc([N+](=O)[O-])c2)N1c1ccccc1 (stereo unspecified) , please. high interval

* * *

- Tested on: Sonic hedgehog protein (Shh)
- PROTOCOL: Sonic hedgehog microarray binding compounds – biochemical, small-molecule microarray, 635/667 nm fluorescence, primary screen (AID 1151);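 further: Shh protein binding to compounds spotted on small-molecule microarray slides; score combines spot fluorescence intensity with signal-to-noise across triplicate slides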
- ASSAY CONTEXT: 635 nm fluorescence, higher = more signal
PARAMETER MEASURED: composite z-score

Completed entries (count: 3):
| MOLECULE | ASSAY SYSTEM | composite z-score |
| --- | --- | --- |
| COc1cc(NN2C(C(O)c3ccc(N(C)C)cc3)C=CC3C(=O)N(c4ccccc4)C(=O)C32)cc(OC)c1OC (stereo not drawn) | Sonic hedgehog protein (Shh) | -0.254 |
| CCCC[C@@H](O)C1=C(COC)C[C@H]2C(=O)N(C)C(=O)[C@H]2[C@H]1CO | Sonic hedgehog protein (Shh) | 0.882 |
| C[N+](C)(C)CCCCCCNC(=O)[C@@H]1C[C@@H]2C(=O)N3CCC[C@H]3C(=O)N2[C@@H]1c1ccc(O)cc1 | Sonic hedgehog protein (Shh) | 2.12 |

What value of composite z-score has been reported for the following molecule? "CCOC(=O)C[C@H]1[C@H](OC(=O)Cc2ccc3c(c2)OCO3)[C@@H](NC(=O)C2CCCCC2)c2cc(OCCCO)ccc2N1C(=O)c1ccccc1" 0.0725

Same lookup for "COC(=O)[C@@]1(Cc2ccc(OC)cc2)[C@H]2c3cc(C(=O)N4CCCC4)n(CCc4c[nH]c5ccc(OC)cc45)c3C[C@H]2CN1C(=O)c1ccccc1" , please. -0.565

Same lookup for "C#Cc1cc2ccccc2oc1=O" , please. -1.45

Same lookup for CC(C)(C)OC(=O)CC[C@@]1(C(=O)NCC(O)CO)N=C(c2ccc(OCCCO)cc2)O[C@@H]1c1ccccc1CN=[N+]=[N-] (stereo partly drawn) , please. -0.157

Same lookup for "CCOC(=O)C[C@H]1[C@H](OC(=O)c2ccc(C(=O)c3ccccc3)cc2)[C@@H](NC(=O)CC(C)C)c2cc(OCCCO)ccc2N1C(=O)c1ccccc1" , please. 1.32
